Sourced from patent US20170029530A1

- Assay Target: T1, hDPEP3-ECD-His (human, UniProt Q9H4B8 36-463)
- T1 construct: also called hDPEP3-His; monomeric hDPEP3-His antigen; not shown: histidine tag
- T1 sequence: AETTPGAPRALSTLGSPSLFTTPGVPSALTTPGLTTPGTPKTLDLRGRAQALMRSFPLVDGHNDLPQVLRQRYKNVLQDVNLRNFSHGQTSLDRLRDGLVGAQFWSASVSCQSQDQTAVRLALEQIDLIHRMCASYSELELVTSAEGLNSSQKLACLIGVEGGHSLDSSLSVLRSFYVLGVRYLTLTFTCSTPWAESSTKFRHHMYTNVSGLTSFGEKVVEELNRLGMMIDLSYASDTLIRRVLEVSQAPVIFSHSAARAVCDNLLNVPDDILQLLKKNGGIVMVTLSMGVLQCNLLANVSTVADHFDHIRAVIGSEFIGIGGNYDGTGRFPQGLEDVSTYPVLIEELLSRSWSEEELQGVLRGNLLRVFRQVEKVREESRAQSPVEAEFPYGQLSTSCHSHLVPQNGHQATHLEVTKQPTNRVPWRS
- Test Description: BLI ForteBio RED, 200 nM hDPEP3-His, estimated grade
pKd: −log10 of the molar value.
Recorded measurements of pKd, one per entry

Binder	pKd
SC34.16 (antibody, mouse IgG1, V domains shown) VH: QVQLQQSGTELARPGASVKLSCKASEYTFTSYAITWVRQRTGQGLEWIGEIYPGSGNTYYNETFKGKATLTSDKSSSTASMQLSSLTSEDSAVYFCARVHDYGSWFPYWGQGTLVTVSA VL: DIVMSQSPSSLAVSVGEKVTMSCKSSQSLLYSRYQKNYLAWYQQKPGQSPKLLIYWSSTRESGVPDRFTGSGSGTDFTLTISSVKAEDLADYYCQQYYRYPLTFGAGTKLELK	> 8.30

Consider now this further binder.
Return reported pKd; argument: SC34.25 (antibody, mouse IgG1, V domains shown) VH: QVQLQQSGVELARPGASVKVSCKASGYTFTSYAISWVKQRTGQGLEWIGEIYPGSGETYYNEKFKGKATLTTDKSSSTAYMHLSSLTSEDSAVYLCGRVNDYGSWFPYWGQGTLVTVSA VL: DIVMSQSPSSLAVSGGEKVTMSCKSSQSLLYSRYQKNYVAWYQQKPGQSPKLLIYWASTRESGVPDRFTGSGSGTDFTLTISSVKAEDLAVYYCQQYYRYPLTFGAGTKLELK > 8.30
